- test: Parallel Artificial Membrane Permeability Assay (PAMPA) at pH 6.8
- Type: physicochemical
This section presents compounds with their documented HT-Perm logPe pH6.8 values.
Response field accepts a number only; no unit should be typed.

For orientation, consider the following solved cases.
[
  {
    "entry smiles": "COc1ccc(-n2c(=O)n(C)c3cnc4ccc(-c5cnc(CO)c(OC)c5)cc4c32)c(C)n1",
    "HT-Perm logPe pH6.8": "−3.9"
  },
  {
    "entry smiles": "COCCN(C)c1ccc(-n2c(=O)n(C)c3cnc4ccc(-c5cnc6c(ccn6C)c5)cc4c32)c(C)n1",
    "HT-Perm logPe pH6.8": "−3.9"
  },
  {
    "entry smiles": "COc1ccc(-n2c(=O)n(C)c3cnc4ccc(-c5ccc6nccn6c5)cc4c32)c(OC)n1",
    "HT-Perm logPe pH6.8": "−3.9"
  }
]

Below: the item to evaluate.
HT-Perm logPe pH6.8 recorded for this compound, `CCOc1ccc(-c2ccc3ncc4c(c3c2)n(-c2ccc(OCCOC)nc2C)c(=O)n4C)cn1` , is −4

====

- target desc: PI3K alfa (Homo sapiens, UniProt P42336)
- Construct: His tag (C); made in house; host or cells: baculovirus BV1075; Tn5 (Trichoplusia ni) or TiniPro insect cells
- Sequence (P42336 with tags, fused parts or gaps limits assumed): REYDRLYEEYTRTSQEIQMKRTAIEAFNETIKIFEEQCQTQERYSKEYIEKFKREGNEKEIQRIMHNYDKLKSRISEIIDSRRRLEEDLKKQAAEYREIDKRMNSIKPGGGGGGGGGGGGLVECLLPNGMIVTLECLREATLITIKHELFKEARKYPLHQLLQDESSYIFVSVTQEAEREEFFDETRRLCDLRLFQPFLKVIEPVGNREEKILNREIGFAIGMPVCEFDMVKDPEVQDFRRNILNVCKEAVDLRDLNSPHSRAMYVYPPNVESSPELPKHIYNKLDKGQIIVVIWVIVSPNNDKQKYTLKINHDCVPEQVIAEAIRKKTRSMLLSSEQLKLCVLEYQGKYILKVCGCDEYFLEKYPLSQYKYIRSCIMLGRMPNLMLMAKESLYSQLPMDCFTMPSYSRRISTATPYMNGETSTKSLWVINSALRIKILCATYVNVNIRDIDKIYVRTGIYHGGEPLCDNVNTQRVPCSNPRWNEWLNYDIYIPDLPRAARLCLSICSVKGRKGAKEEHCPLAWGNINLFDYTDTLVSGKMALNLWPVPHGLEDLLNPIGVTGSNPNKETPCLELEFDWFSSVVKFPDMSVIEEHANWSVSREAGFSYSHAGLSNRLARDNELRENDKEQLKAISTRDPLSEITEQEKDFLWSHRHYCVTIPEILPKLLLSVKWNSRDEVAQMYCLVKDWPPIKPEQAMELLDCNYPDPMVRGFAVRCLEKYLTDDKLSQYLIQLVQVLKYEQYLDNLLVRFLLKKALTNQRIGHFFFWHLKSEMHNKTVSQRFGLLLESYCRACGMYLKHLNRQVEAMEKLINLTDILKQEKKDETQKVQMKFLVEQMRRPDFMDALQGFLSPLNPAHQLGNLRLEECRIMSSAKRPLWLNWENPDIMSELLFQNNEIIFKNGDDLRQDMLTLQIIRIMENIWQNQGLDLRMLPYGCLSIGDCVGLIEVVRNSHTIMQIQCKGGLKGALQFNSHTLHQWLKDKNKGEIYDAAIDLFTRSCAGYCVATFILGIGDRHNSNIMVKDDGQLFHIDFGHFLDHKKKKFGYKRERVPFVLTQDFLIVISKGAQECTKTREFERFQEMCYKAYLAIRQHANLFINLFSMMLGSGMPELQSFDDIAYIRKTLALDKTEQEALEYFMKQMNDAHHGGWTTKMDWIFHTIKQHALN
- test: PI3K alpha kinase assay (Kinase-Glo luminescence)
- Format: biochemical
- study conditions: read-out: EPK_PI3Kalfa/IC50
measured attribute: IC50 (nM)
Provide the reading as a plain figure in nM.

[
  {
    "entry smiles": "Cc1nc(C(C)(C)O)ccc1-n1c(=O)n(C)c2cnc3ccc(-c4cncc(OC(C)C)c4)cc3c21",
    "target desc": "PI3K alfa (Homo sapiens, UniProt P42336)",
    "test result": 51
  },
  {
    "entry smiles": "CNc1ncc(-c2ccc3ncc4c(c3c2)n(-c2ccc(N3CC[C@H](O)C3)nc2C)c(=O)n4C)cc1C(F)(F)F",
    "target desc": "PI3K alfa (Homo sapiens, UniProt P42336)",
    "test result": 9
  },
  {
    "entry smiles": "CCOCc1cc(-c2ccc3ncc4c(c3c2)n(-c2ccc(F)nc2C)c(=O)n4C)cnc1N",
    "target desc": "PI3K alfa (Homo sapiens, UniProt P42336)",
    "test result": 59
  },
  {
    "entry smiles": "CNc1ncc(-c2ccc3ncc4c(c3c2)n(-c2ccc(N3CC(O)C3)nc2C)c(=O)n4C)cc1F",
    "target desc": "PI3K alfa (Homo sapiens, UniProt P42336)",
    "test result": 40
  },
  {
    "entry smiles": "CNc1ncc(-c2ccc3ncc4c(c3c2)n(-c2ccc(N3CC[C@H](O)C3)nc2C)c(=O)n4C)cn1",
    "target desc": "PI3K alfa (Homo sapiens, UniProt P42336)",
    "test result": 17
  },
  {
    "entry smiles": "CCNc1cc(-c2ccc3ncc4c(c3c2)n(-c2ccc(N(C)CCO)nc2C)c(=O)n4C)cnc1CO",
    "target desc": "PI3K alfa (Homo sapiens, UniProt P42336)",
    "test result": 84
  }
]

Below: the item to evaluate.
IC50 recorded for this compound, `COc1cc(-c2ccc3ncc4c(c3c2)n(-c2ccc(N(C)C)nc2C)c(=O)n4C)cnc1CO` , is 9

====

- target desc: PI3K delta (Homo sapiens, UniProt O00329)
- Construct: for the full-length p110-d subunit are generated and fused by overlapping PCR; His tag (C); made in house; host or cells: baculovirus BV1060; Tn5 (Trichoplusia ni) or TiniPro insect cells
- Sequence (O00329 with tags, fused parts or gaps limits assumed): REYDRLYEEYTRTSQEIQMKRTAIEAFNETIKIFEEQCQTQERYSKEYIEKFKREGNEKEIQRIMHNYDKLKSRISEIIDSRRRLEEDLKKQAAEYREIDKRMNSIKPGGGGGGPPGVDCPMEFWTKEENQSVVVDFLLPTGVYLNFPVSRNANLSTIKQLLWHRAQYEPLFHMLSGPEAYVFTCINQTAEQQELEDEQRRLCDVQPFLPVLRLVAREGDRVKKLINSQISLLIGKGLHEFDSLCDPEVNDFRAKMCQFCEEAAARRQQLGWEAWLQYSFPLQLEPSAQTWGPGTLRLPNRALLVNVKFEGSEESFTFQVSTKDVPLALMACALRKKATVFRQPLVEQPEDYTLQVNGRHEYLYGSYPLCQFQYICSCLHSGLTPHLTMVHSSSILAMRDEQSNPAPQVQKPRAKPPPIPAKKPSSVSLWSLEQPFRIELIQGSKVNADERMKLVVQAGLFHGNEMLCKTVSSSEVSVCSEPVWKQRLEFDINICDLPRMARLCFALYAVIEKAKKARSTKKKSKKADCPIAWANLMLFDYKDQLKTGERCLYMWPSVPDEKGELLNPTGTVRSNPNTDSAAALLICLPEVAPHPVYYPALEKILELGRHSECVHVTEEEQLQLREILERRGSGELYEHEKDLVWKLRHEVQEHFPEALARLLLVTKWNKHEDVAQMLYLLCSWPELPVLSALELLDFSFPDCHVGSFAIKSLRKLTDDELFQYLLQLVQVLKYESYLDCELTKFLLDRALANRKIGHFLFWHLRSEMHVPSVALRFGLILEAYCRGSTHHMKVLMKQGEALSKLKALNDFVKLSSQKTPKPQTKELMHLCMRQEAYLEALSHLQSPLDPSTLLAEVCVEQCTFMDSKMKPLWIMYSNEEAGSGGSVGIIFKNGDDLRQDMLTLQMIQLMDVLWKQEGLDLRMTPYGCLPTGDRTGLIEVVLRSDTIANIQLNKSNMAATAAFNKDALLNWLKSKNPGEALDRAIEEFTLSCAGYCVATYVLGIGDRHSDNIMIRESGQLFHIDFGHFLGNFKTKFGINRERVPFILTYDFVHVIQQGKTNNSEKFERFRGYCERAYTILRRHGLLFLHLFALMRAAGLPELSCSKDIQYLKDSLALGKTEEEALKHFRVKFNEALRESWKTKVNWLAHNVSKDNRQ
- test: PI3K delta kinase assay (Kinase-Glo luminescence)
- Assay type: biochemical
- study conditions: read-out: PI3Kdelta/IC50
measured attribute: pIC50
Just the number, please; pIC50 means minus log10 of the concentration in mol/L.

pIC50 recorded for this compound, `CCOc1ccc(-c2ccc3ncc4c(c3c2)n(-c2cccnc2C)c(=O)n4C)cn1` , is 7.03

pIC50 recorded for this compound, `CNc1ccc(-c2ccc3ncc4c(c3c2)n(-c2cccnc2OC)c(=O)n4C)cn1` , is 7.09

pIC50 recorded for this compound, `CCOc1ccc(-c2ccc3ncc4c(c3c2)n(-c2ccc(N3CCNCC3)nc2OC)c(=O)n4C)cn1` , is 7.18

pIC50 recorded for this compound, `COc1ccc(-c2ccc3ncc4c(c3c2)n(-c2ncccc2C)c(=O)n4C)cc1OC` , is 6.82

FYI, the data here is from patent US20100311714A1.
